Here the recorded MIC is given for each entry.
- Tested on: Klebsiella pneumoniae
- measurement_protocol: Antibacterial activity against Klebsiella pneumoniae after 24 hrs by two fold dilution technique
- Format: functional
Write the figure, then the unit, nothing else.

// solved cases for MIC follow
>  <compound>
CCCCC/C=C\CC[C@H](O)CCCCCCCc1nnc(Nc2ccccc2)o1

>  <MIC>
6.25 µg/mL

$$$$
>  <compound>
CCCCCCCC/C=C\CCCCCCCc1nnc(Nc2ccccc2)o1

>  <MIC>
12.5 µg/mL

$$$$
>  <compound>
CCCCCC[C@@H](O)C/C=C\CCCCCCCc1nnc(Nc2ccccc2)o1

>  <MIC>
6.25 µg/mL

$$$$
>  <compound>
O=C(N[C@H](CO)[C@H](O)c1ccc([N+](=O)[O-])cc1)C(Cl)Cl [CHLORAMPHENICOL]

>  <MIC>
6.25 µg/mL

$$$$
>  <compound>
C=CCCCCCCCCc1nnc(Nc2ccccc2)o1

>  <MIC>
12.5 µg/mL

$$$$
>  <compound>
C=CCCCCCCCCc1nnc(Nc2ccccc2)s1

>  <MIC>
25 µg/mL

$$$$
>  <compound>
CCCCCCCC/C=C\CCCCCCCc1nnc(Nc2ccccc2)s1

>  <MIC>
25 µg/mL

$$$$
>  <compound>
CCCCC/C=C\CCC(O)CCCCCCCc1nnc(Nc2ccccc2)s1 (centres undefined)

>  <MIC>
6.25 µg/mL

$$$$

Then this compound:
Test system Klebsiella pneumoniae; read-out MIC; what value for CCCCCCC(O)C/C=C\CCCCCCCc1nnc(Nc2ccccc2)s1 (centres undefined) ?
6.25 µg/mL
